Assay: single-oral-dose pharmacokinetic study, plasma AVA and metabolite concentrations in pediatric hypercholesterolemia stratified by SLCO1B1 c.521T>C genotype
Format: in vivo, human
Conditions: human, plasma, oral, 10 mg, Table S3; Tanner Breast/Testicular Stage 3; read-out: AUC0-24
Experimental: A screening physical examination (including sexual maturity rating via Tanner Staging) was performed prior to ingesting AVA. […] Samples were immediately centrifuged at 4 °C for 10 min at 600 g. Plasma was removed and stored at -80 °C until the analysis. […] An aliquot of the extracts was then transferred to a 96-well plate and analyzed by ultra-performance liquid chromatography tandem mass spectrometry (UPLC-MS/MS) with positive-ion electrospray ionization using multiple-reaction monitoring (MRM). […]
Record form. Attribute: AUC(0-t). Fill in for each entry.
Give bare numbers, in ng·h/mL.

# batch size: 2; output AUC(0-t) per entry
1. CC(C)c1c(C(=O)Nc2ccccc2)c(-c2ccccc2)c(-c2ccc(F)cc2)n1CC[C@@H]1C[C@@H](O)CC(=O)O1
2. CC(C)c1c(C(=O)Nc2ccccc2O)c(-c2ccccc2)c(-c2ccc(F)cc2)n1CCC1CC(O)CC(=O)O1 (stereo not drawn) [2-Hydroxy Atorvastatin Lactone, 2-hydroxyatorvastatin lactone]

Output:
17.3
23.4

Task: Tell us which AUC(0-t) value is on record for CC(C)c1c(C(=O)Nc2ccccc2O)c(-c2ccccc2)c(-c2ccc(F)cc2)n1CC[C@@H](O)C[C@@H](O)CC(=O)O [2-Hydroxy Atorvastatin, 2-hydroxyatorvastatin]
Output: 6

###

Experiment: single-oral-dose pharmacokinetic study, plasma AVA and metabolite concentrations in pediatric hypercholesterolemia stratified by SLCO1B1 c.521T>C genotype
Type: in vivo, human
Settings: human, plasma, po, 10 mg, SLCO1B1 c.521T/C (n = 13); single oral 10 mg dose; mean (±SD)
RECORDED_METRIC: Cmax

Please review the entries below; each comes with its answer.
COMPOUND	OBSERVED_RESULT
CC(C)c1c(C(=O)Nc2ccccc2)c(-c2ccccc2)c(-c2ccc(F)cc2)n1CC[C@@H]1C[C@@H](O)CC(=O)O1	1.1 ng/mL
CC(C)c1c(C(=O)Nc2ccccc2O)c(-c2ccccc2)c(-c2ccc(F)cc2)n1CCC1CC(O)CC(=O)O1 (stereo not drawn) [2-Hydroxy Atorvastatin Lactone, 2-hydroxyatorvastatin lactone]	1.3 ng/mL

Next compound, please.
Task: Tell us which Cmax value is on record for CC(C)c1c(C(=O)Nc2ccccc2O)c(-c2ccccc2)c(-c2ccc(F)cc2)n1CC[C@@H](O)C[C@@H](O)CC(=O)O [2-Hydroxy Atorvastatin, 2-hydroxyatorvastatin]
Output: 0.8 ng/mL

###

Assay: single-oral-dose pharmacokinetic study, plasma AVA and metabolite concentrations in pediatric hypercholesterolemia stratified by SLCO1B1 c.521T>C genotype
Format: in vivo, human
Conditions: human, plasma, po, 10 mg, entire cohort (n = 28); median (IQR); single oral 10 mg dose; read-out: AUC0–24
Method: A screening physical examination (including sexual maturity rating via Tanner Staging) was performed prior to ingesting AVA. […] Samples were immediately centrifuged at 4 °C for 10 min at 600 g. Plasma was removed and stored at -80 °C until the analysis. […] An aliquot of the extracts was then transferred to a 96-well plate and analyzed by ultra-performance liquid chromatography tandem mass spectrometry (UPLC-MS/MS) with positive-ion electrospray ionization using multiple-reaction monitoring (MRM). […]
RECORDED_METRIC: AUC(0-t) (ng·h/mL)
Give bare numbers, in ng·h/mL.

COMPOUND	RECORDED_METRIC	OBSERVED_RESULT
CC(C)c1c(C(=O)Nc2ccccc2O)c(-c2ccccc2)c(-c2ccc(F)cc2)n1CC[C@@H](O)C[C@@H](O)CC(=O)O [2-Hydroxy Atorvastatin, 2-hydroxyatorvastatin]	AUC(0-t)	6.4
CC(C)c1c(C(=O)Nc2ccccc2)c(-c2ccccc2)c(-c2ccc(F)cc2)n1CC[C@@H]1C[C@@H](O)CC(=O)O1 [Atorvastatin Lactone, atorvastatin lactone]	AUC(0-t)	8.7

Next compound, please.
Task: Tell us which AUC(0-t) value is on record for CC(C)c1c(C(=O)Nc2ccccc2O)c(-c2ccccc2)c(-c2ccc(F)cc2)n1CCC1CC(O)CC(=O)O1 (stereo not drawn) [2-Hydroxy Atorvastatin Lactone, 2-hydroxyatorvastatin lactone]
Output: 14.5
